IC50 by entry:
Tested on: HT-29
Test: Cytotoxicity against c-Met-dependent human HT-29 cells assessed as growth inhibition after 72 hrs by MTT assay
Details: HT-29, 72 h
Give the number; nM is assumed, so skip it.

Answered cases to consult:
COc1cc2c(Oc3ccc(NC(=O)c4nn(-c5ccccc5Cl)c5cc(F)ccc5c4=O)cc3F)ccnc2cc1OCCCN1CCCCC1 : 2470
COc1cc2c(Oc3ccc(NC(=O)c4nn(-c5ccccc5Br)c5ccccc5c4=O)cc3F)ccnc2cc1OCCCN1CCC(C)CC1 : 1340

Could you now look at the following compound, please?
// recorded IC50 for COc1cc2c(Oc3ccc(NC(=O)c4nn(-c5cc(C)ccc5C)c5ccccc5c4=O)cc3F)ccnc2cc1OCCCN1CCCC1 : 3050

* * *

Test system: HT-29
Test: Cytotoxicity against c-Met-dependent human HT-29 cells assessed as growth inhibition after 72 hrs by MTT assay
Conditions: HT-29, 72 h
MEASURED ATTRIBUTE: IC50 (µM)
Quick note: give the figure in µM, leave out the unit.

COc1cc2c(Oc3ccc(NC(=O)c4nn(-c5ccc(C)cc5)c5ccccc5c4=O)cc3F)ccnc2cc1OCCCN1CCOCC1 : 3.2

Value of measured IC50 for the entry COc1cc2c(Oc3ccc(NC(=O)c4nn(-c5ccccc5F)c5ccccc5c4=O)cc3F)ccnc2cc1OCCCN1CCC(C)CC1 : 0.78

Just so you know, measured IC50 for COc1cc2c(Oc3ccc(NC(=O)c4nn(-c5cccc(C(F)(F)F)c5)c5ccccc5c4=O)cc3F)ccnc2cc1OCCCN1CCC(C)CC1 came out at 1.02

For reference, reported IC50 for COc1cc2c(Oc3ccc(NC(=O)c4nn(-c5ccc(F)cc5)c5ccccc5c4=O)cc3F)ccnc2cc1OCCCN1CCC(C)CC1 stands at 0.46

* * *

Tested on: HT-29
Experiment: Cytotoxicity against c-Met-dependent human HT-29 cells assessed as growth inhibition after 72 hrs by MTT assay
Settings: HT-29, 72 h
Measured pIC50 values are reported for all entries that follow.
Please express pIC50 as -log10 of the molar concentration.

For orientation, consider the following solved cases.
COc1cc2c(Oc3ccc(NC(=O)c4nn(-c5ccc(C)cc5)c5ccccc5c4=O)cc3F)ccnc2cc1OCCCN1CCC(C)CC1 : 5.55
COc1cc2c(Oc3ccc(NC(=O)c4nn(-c5cccc(F)c5)c5ccccc5c4=O)cc3F)ccnc2cc1OCCCN1CCCCC1 : 5.73

Consider now this further compound.
Lab note: measured pIC50 of COc1cc2c(Oc3ccc(NC(=O)c4nn(-c5cccc(C(F)(F)F)c5)c5ccccc5c4=O)cc3F)ccnc2cc1OCCCN1CCCCC1 was 6.25
